Below, each of the compounds is paired with its reported drug sensitivity score value.
- Tested on: Calu-3
- assay_summary: drug sensitivity score (DSS) for viability; higher = more toxic; extreme values may be limits of the assay
- settings: 72 h
Number only, please.

Here is how some compounds turned out for drug sensitivity score.
Exercise: Sample CNC(=O)CN1CCC(Oc2cc3c(Nc4cccc(Cl)c4F)ncnc3cc2OC)CC1 — what was its drug sensitivity score?
Key: 18.2

Exercise: Moving on to the next compound: CCOC(=S)SSC(=S)OCC
Key: 0

Exercise: Moving on to the next compound: Clc1ccc(CCCOCCCN2CCCCC2)cc1
Key: 0

Exercise: Moving on to the next compound: COCCOc1cnc2ccn([C@H](C)c3nnc4c(F)cc(-c5cnn(C)c5)cn34)c(=O)c2c1
Key: 0

Exercise: Moving on to the next compound: CC(C)n1cnc2c(NCCc3ccc(O)cc3)nc(-c3csc4ccccc34)nc21
Key: 5

Exercise: Moving on to the next compound: C[C@]12C=CC(=O)N[C@@H]1CC[C@@H]1[C@@H]2CC[C@]2(C)[C@@H](C(=O)Nc3cc(C(F)(F)F)ccc3C(F)(F)F)CC[C@@H]12 [dutasteride]
Key: 0

Exercise: Moving on to the next compound: c1ccc(CNc2ncnc3[nH]cnc23)cc1
Key: 0

Exercise: Moving on to the next compound: CO/N=C(\C(=O)N[C@@H]1C(=O)N2C(C(=O)O)=C(CSc3nc(C)c(CC(=O)O)s3)CS[C@H]12)c1csc(N)n1
Key: 0

Exercise: Moving on to the next compound: CC1(C)C(=O)NC2=C1C(=O)C(=O)c1ccccc12
Key: 4.2

Exercise: Moving on to the next compound: Cc1cnc(NC(=O)Nc2cc(Br)c(C)cc2OC[C@@H]2CNCCO2)cn1
Key: 4.5

***
Exercise: Sample CC1=C(CCC(=O)O)c2cc3[nH]c(cc4nc(cc5[nH]c(cc1n2)c(C)c5C(C)O)C(C)=C4C(C)O)c(C)c3CCC(=O)O (stereo not drawn) — what was its drug sensitivity score?
Key: 0.6

Exercise: Moving on to the next compound: CCCCOc1c(C(=O)c2c(F)cc(C)cc2F)c[nH]c2nncc1-2
Key: 0

====

- Test system: Calu-3
- assay_summary: cell viability relative to DMSO; higher = less toxic
- settings: 72 h; 10 nM
endpoint_label: cell viability (%)
The answer is to be given in %; state only the numeric part.

Here is how some compounds turned out for cell viability.
Exercise: Request - read-out cell viability | tested on Calu-3 | compound Cc1ccc2c(Br)cc(Br)c(OC(=O)c3ccccc3)c2n1 [broxaldine]
Key: 99.8

Exercise: Moving on to the next compound: COc1cc(C(=O)N(CC[C@H]2CCCN2C)C/C(C)=C/c2ccccc2F)cc(OC)c1OC (racemic)
Key: 108

Exercise: Moving on to the next compound: CNC(=O)[C@H]1O[C@@H](n2cnc3c(NCc4cccc(I)c4)ncnc32)[C@H](O)[C@@H]1O [IB-MECA]
Key: 98.3

Exercise: Moving on to the next compound: N[C@@H](CSCCCO)C(=O)O [fudosteine]
Key: 111

Exercise: Moving on to the next compound: COc1ccc(Cc2nccc3cc(OC)c(OC)cc23)cc1OC [papaverine]
Key: 98.8

Exercise: Moving on to the next compound: Cc1nc2ccc(-n3ncc(C(=O)c4cc5ccccc5[nH]4)c3N)cc2[nH]1
Key: 86.9

Exercise: Moving on to the next compound: CCCCCCCC/C=C/C(=O)O [trans-2-undecenoic-acid]
Key: 95.1

Exercise: Moving on to the next compound: COc1ccc2[nH]c(SCc3ncc(C)c(OC)c3C)nc2c1 [omeprazole-sulfide]
Key: 102

***
Exercise: Request - read-out cell viability | tested on Calu-3 | compound COc1ccc(CCO[C@@H]2CCCC[C@H]2N2CC[C@@H](O)C2)cc1OC [vernakalant]
Key: 97.1

Where these numbers come from: the supplement of paper PMC13380429
